System: HCT-8/5-FU (5-FU-resistant strain of HCT-8)
method notes: MTT cytotoxicity assay on HCT-8/5-FU cells
Type: cell-based, human
conditions used: Homo sapiens, MTT, 48 h treatment
readout: pIC50
As a rule, pIC50 stands for the negative log10 of the concentration, concentration in M.

Qu. Retrieve pIC50 measured for O=c1[nH]cc(F)c(=O)[nH]1 [5-FU, fluorouracil, reference compound] and print it.
Ans. 3.77

---

System: HCT-8/5-FU (5-FU-resistant strain of HCT-8)
method notes: MTT cytotoxicity assay on HCT-8/5-FU cells
Format: cell-based, human
conditions used: MTT, 48 h treatment
Description: HCT-8, fluorouracil-resistant HCT-8, fluorouracil-resistant LoVo cell lines were cultured in RPMI Medium 1640 medium containing 10% FBS and 1% penicillin/streptomycin. […] In the cytotoxicity assay, exponentially growing cells of each cancer cell line were plated in 96-well microplate at a density of 5000 cells per well in 100 μL of culture medium and allowed to adhere for 24 h before treatment. […] IC50 results were expressed as means±standard deviation.
[s4U] = 4-thiouridine base; m = 2'-O-methyl; r = 2'-OH (RNA)
readout: IC50 (nM)
Return type: number; implicit unit nM.

EC83 mimic: 22 bp dsRNA; antisense SEQ ID NO: 89 GCCGAAGUGGCGAAAUCGGUAG, sense SEQ ID NO: 183 CUACCGAUUUCGCCACUUCGGC; 5′-t of tRNA-Leu(CAA) (RNA, backbone not given here; tRNA-derived fragment mimic duplex) [22 bp dsRNA; 5′-t of tRNA-Leu(CAA)]	63.4
EC83-M2 mimic: modified EC83 dsRNA; antisense SEQ ID NO: 2 GCCGAAGUGGCGAAAUC[Gm]GUAG, sense SEQ ID NO: 5 CUACCGAUUUCGCCACUUCGGC (antisense GCCGAAGUGGCGAAAUCGGUAG; antisense: sugars from the 5' end r17 m1 r4, backbone not given here; sense: RNA, backbone not given here; tRNA-derived fragment mimic duplex)	48.8
EC83-M1 mimic: modified EC83 dsRNA; antisense SEQ ID NO: 1 GCCGAAG[s^4U]GGCGAAAUCGGUAG, sense SEQ ID NO: 4 CUACCGAUUUCGCCACUUCGGC (antisense GCCGAAGUGGCGAAAUCGGUAG; antisense: RNA, [s4U] at 8, backbone not given here; sense: RNA, backbone not given here; tRNA-derived fragment mimic duplex)	69.6

Qu. Return value of IC50 for input EC83-M3 mimic: modified EC83 dsRNA; antisense SEQ ID NO: 3 GCCGAAG[s^4U]GGCGAAAUC[Gm]GUAG, sense SEQ ID NO: 6 CUACCGAUUUCGCCACUUCGGC (antisense GCCGAAGUGGCGAAAUCGGUAG; antisense: sugars from the 5' end r17 m1 r4, [s4U] at 8, backbone not given here; sense: RNA, backbone not given here; tRNA-derived fragment mimic duplex) , no commentary.
Ans. 72.2

Recorded values, source patent US11866704B2.
